Attribution: PubChem BioAssay (NCI)

Catalogue of growth readings, one per entry.
System: OVCAR-3 ovarian
Experiment: NCI-60 one-dose screen, 48 h (100 = growth as untreated, 0 = no growth, -100 = all killed)
Details: 10 µM unless noted
About 83,000 compounds went through this panel and 20% of them were active in at least one assay; those are over-represented in the sample as a whole.
MEASURE: growth (%)

>  <COMPOUND>
CC(=O)c1c(Nc2cccc(F)c2)[nH]c2c(Cl)cc(Cl)c(Cl)c2c1=O

>  <DATA_VALUE>
14.8

$$$$
>  <COMPOUND>
C=C[C@@]1(C)CC(=O)[C@@H](C(C)(C)c2cn(C)c3ccc(Br)cc23)C[C@@H]1O[Si](C)(C)C(C)(C)C

>  <DATA_VALUE>
103

$$$$
>  <COMPOUND>
CN1CCN(c2ccc(NC3=CC(=O)c4ncncc4C3=O)cc2)CC1

>  <DATA_VALUE>
-58.6

$$$$
>  <COMPOUND>
O=S(=O)(N=C1C(Cl)=C(Cl)C(=NS(=O)(=O)c2ccccc2)C(Cl)=C1Cl)c1ccccc1

>  <DATA_VALUE>
130

$$$$
>  <COMPOUND>
COc1ccc(Oc2ccc(/C=C/C(=O)c3ccc(OC)c(OC)c3)cc2)cc1

>  <DATA_VALUE>
86.7

$$$$
>  <COMPOUND>
Cc1ccc(S(=O)(=O)OCC#CCOS(=O)(=O)c2ccc(C)cc2)cc1

>  <DATA_VALUE>
12.4

$$$$
>  <COMPOUND>
COCCOC(C)C(/C=N/NC(N)=S)=N/NC(N)=S (configuration not stated)

>  <DATA_VALUE>
13.9

$$$$
>  <COMPOUND>
Cc1ccc(NC(=O)c2cc3ccccc3cc2O)c(C)c1

>  <DATA_VALUE>
66.4

$$$$
>  <COMPOUND>
Cn1c(C#N)ccc1-c1ccc(F)c(NC(=O)c2ccc(F)cc2)c1

>  <DATA_VALUE>
77

$$$$
>  <COMPOUND>
O=C(NN1C(=O)CSC1c1cccc([N+](=O)[O-])c1)c1ccc(NC(=O)c2ccccn2)cc1 (configuration not stated)

>  <DATA_VALUE>
103

$$$$
>  <COMPOUND>
Cn1cc(-c2csc(-c3cn(CCCN4CCOCC4)c4ccc(F)cc34)n2)c2cccnc21

>  <DATA_VALUE>
77.6

$$$$
>  <COMPOUND>
CCOC(=O)CC1CSC(N/N=C/c2ccc(F)c(Br)c2)=N1 (configuration not stated)

>  <DATA_VALUE>
99.3

$$$$
>  <COMPOUND>
COC1C(O)CC(OC2CC(OC3CC(O[C@@H]4C(=O)c5c(cc6cc(OC7CC(OC8CC(O)C(O)C(C)O8)C(O)C(C)O7)c(C)c(O)c6c5O)CC4[C@H](OC)[C@@H](O)C(C)=O)OC(C)C3O)OC(C)C2O)OC1C (some centres not stated)

>  <DATA_VALUE>
5.36

$$$$
>  <COMPOUND>
Nc1nc2ccccc2c2c(=O)c3cc(Cl)ccc3sc12

>  <DATA_VALUE>
-22.8

$$$$
>  <COMPOUND>
COc1cc(Cc2cc(-c3ccccc3)nn(Cc3ccccc3)c2=O)cc(OC)c1OC

>  <DATA_VALUE>
46.9

$$$$
>  <COMPOUND>
CN(C)C1CN(C(=O)c2cc(-c3ccc4ncnc(N5CCc6cc(F)c(Cl)cc65)c4c3)cnc2N)C1

>  <DATA_VALUE>
-16.5

$$$$
>  <COMPOUND>
COC(=O)/C=C1/SC(=Nc2ccc(F)cc2)N(CCc2c[nH]c3ccc(O)cc23)C1=O

>  <DATA_VALUE>
21.5

$$$$
>  <COMPOUND>
CC1(C)N=C(N)N=C(N)N1c1ccc(S(=O)(=O)Nc2nccs2)cc1

>  <DATA_VALUE>
107

$$$$
>  <COMPOUND>
O=C(O)c1cn(C2CC2)c2cc(N3CCN(C(=O)N4CCOCC4)CC3)c(F)cc2c1=O

>  <DATA_VALUE>
109

$$$$
>  <COMPOUND>
C=C(C)[C@@H]1CC[C@]2(C(=O)N3CCN(C)CC3)CC[C@]3(C)[C@H](CC[C@@H]4[C@@](C)(CCC(=O)O)[C@H](C(=C)C)CC[C@]43C)[C@@H]12

>  <DATA_VALUE>
88.8

$$$$
>  <COMPOUND>
c1ccc2cc(Cn3cc(CSc4nc5ccccc5s4)nn3)ccc2c1

>  <DATA_VALUE>
103

$$$$
>  <COMPOUND>
CC1=C2CC/C(C)=C/CC[C@]3(C)O[C@H]3CC/C(C)=C/[C@H]2OC1

>  <DATA_VALUE>
110

$$$$
>  <COMPOUND>
Nc1cc(C(=O)O)cc(-n2c(O)c(C=C3N=c4ccccc4=N3)sc2=S)c1

>  <DATA_VALUE>
106

$$$$
>  <COMPOUND>
N#Cc1ccc(O)c(C2=NCC(c3ccc(-c4ccccc4)cc3)O2)c1 (configuration not stated)

>  <DATA_VALUE>
22.7

$$$$
>  <COMPOUND>
Cc1[nH]c(C(=O)Nc2ccccc2OC2CCN(CCN3CCOCC3)CC2)c(Cl)c1Cl

>  <DATA_VALUE>
109

$$$$
>  <COMPOUND>
O=C(/C=C/c1ccccc1)N(C1CCCCC1)C1CCCCC1

>  <DATA_VALUE>
89.6

$$$$
>  <COMPOUND>
CC(C)c1ccc2c(c1)CC[C@H]1[C@](C)(C(=O)OCC#CCN3CCCC3)CCC[C@]21C

>  <DATA_VALUE>
77.6

$$$$
>  <COMPOUND>
CCOC(=O)c1cnn(CC(C)O)c1NC(=O)NCc1ccccc1C(F)(F)F (configuration not stated)

>  <DATA_VALUE>
108

$$$$
>  <COMPOUND>
COc1cc(-c2cc(-c3ccc(Nc4nc(Nc5ccc(Cl)cc5)nc(Nc5ccc(Cl)cc5)n4)cc3)no2)cc(OC)c1OC

>  <DATA_VALUE>
86

$$$$
>  <COMPOUND>
C[C@H](c1nc2ccc(C#N)cc2[nH]1)[C@H]1CC[C@H]2[C@@H]3CCC4=CC(=O)CC[C@]4(C)[C@H]3CC[C@]12C

>  <DATA_VALUE>
72.1

$$$$
>  <COMPOUND>
NS(=O)(=O)c1ccc(C(=O)N=Nc2c(O)[nH]c3ccc(Cl)cc23)cc1

>  <DATA_VALUE>
113

$$$$
>  <COMPOUND>
c1ccc(-c2c(-c3ccccc3)[n+](Cc3ccc4ccccc4c3)cn2Cc2ccc3ccccc3c2)cc1

>  <DATA_VALUE>
-91.1

$$$$
>  <COMPOUND>
O=[N+]([O-])c1c(O)c(Cl)cc(Cl)c1Cl

>  <DATA_VALUE>
111

$$$$
>  <COMPOUND>
CC12OC(CC(O)C1O)n1c3ccccc3c3c4c(c5c6ccccc6n2c5c31)C(=O)N(CCN1CCCC1)C4=O (configuration not stated)

>  <DATA_VALUE>
25.7

$$$$
>  <COMPOUND>
Cc1c2cnccc2c(C)c2c1c1cc(CO)ccc1n2C

>  <DATA_VALUE>
-33.7

$$$$
>  <COMPOUND>
CCOC(=O)c1[nH]cc2c1CCc1sc(Nc3ccccn3)nc1-2

>  <DATA_VALUE>
82.2

$$$$
>  <COMPOUND>
C=CN(C(=O)N1CCN(c2cc3c(cc2F)c(=O)c(C(=O)O)cn3C2CC2)CC1)c1nc(-c2ccccc2)cs1

>  <DATA_VALUE>
108

$$$$

====

System: K-562 leukemia
Test: NCI-60 one-dose screen, 48 h
Settings: 10 µM unless noted
The panel holds about 83,000 compounds, 20% with a hit somewhere; the sample as a whole holds those more often. Calls of active or inactive are those of the source. How the source made its calls: active means growth percent below 10; inactive means the rest.
Possible outcomes: active, inactive

>  <COMPOUND>
C=C(C)[C@@H]1CC[C@]2(COC3CCCCO3)CC[C@]3(C)[C@H](CC[C@@H]4[C@@]5(C)C=C(C=O)C(=O)C(C)(C)[C@@H]5CC[C@]43C)[C@@H]12 (some centres not stated)

>  <ASSIGNED_CATEGORY>
active

$$$$
>  <COMPOUND>
CCCc1cc(=O)oc2c(C(=O)CC(C)C)c(O)c(CC=C(C)C)c(O)c12

>  <ASSIGNED_CATEGORY>
inactive

$$$$
>  <COMPOUND>
COC1C(O)CC(OC2CC(OC3CC(O[C@@H]4C(=O)c5c(cc6cc(OC7CC(OC8CC(O)C(O)C(C)O8)C(O)C(C)O7)c(C)c(O)c6c5O)CC4[C@H](OC)C(=O)C(C)=O)OC(C)C3O)OC(C)C2O)OC1C (some centres not stated)

>  <ASSIGNED_CATEGORY>
active

$$$$
>  <COMPOUND>
CSc1ccc2c3c(n(C[C@H](O)CO)c(=O)c2c1)-c1ccccc1C3=O

>  <ASSIGNED_CATEGORY>
inactive

$$$$
>  <COMPOUND>
CCN(CCNc1ccc(C)c2sc3cc(Cl)ccc3c(=O)c12)CC(C)(C)O

>  <ASSIGNED_CATEGORY>
inactive

$$$$
>  <COMPOUND>
Fc1cc2[nH]ncc2c2c3c(c(-c4cn[nH]c4C(F)(F)F)nc12)CCCC3

>  <ASSIGNED_CATEGORY>
active

$$$$
>  <COMPOUND>
COC(=O)[C@@]12CC=C(C)[C@]3(C[C@H](c4ccoc4)OC3=O)[C@H]1C=C[C@@H](O)[C@@]2(O)C(=O)OC

>  <ASSIGNED_CATEGORY>
inactive

$$$$
>  <COMPOUND>
CCN(CC)CCOc1ccc(Nc2ncc3cc(-c4c(Cl)cccc4Cl)c(=O)n(CCOC)c3n2)cc1

>  <ASSIGNED_CATEGORY>
active

$$$$
>  <COMPOUND>
COc1ccc2cc(C(=O)N3CCC([C@@H](C)C(=O)NCc4ccc5c(c4)OCO5)CC3)[nH]c2c1

>  <ASSIGNED_CATEGORY>
inactive

$$$$
>  <COMPOUND>
CC(C)NS(=O)(=O)/N=C1\NC(=O)NC1=C(Cl)Cl

>  <ASSIGNED_CATEGORY>
inactive

$$$$
>  <COMPOUND>
CN(C)c1ccc([C@@H](C(=O)Nc2cccc([N+](=O)[O-])c2)N(C(=O)c2cc3ccccc3[nH]2)c2cccc([N+](=O)[O-])c2)cc1

>  <ASSIGNED_CATEGORY>
inactive

$$$$
>  <COMPOUND>
COC(=O)c1ccc2c(c1)c1c(C)c3cnccc3c(C)c1n2C

>  <ASSIGNED_CATEGORY>
active

$$$$
>  <COMPOUND>
COc1ccc2cc(-c3nc4ccc(C)cn4c3NCc3ccco3)c(=O)[nH]c2c1

>  <ASSIGNED_CATEGORY>
inactive

$$$$
>  <COMPOUND>
COc1ccc2c(c1)C(C)Cc1c(ncnc1-n1cnc3cc(C)ccc31)N2C (configuration not stated)

>  <ASSIGNED_CATEGORY>
active

$$$$
>  <COMPOUND>
CN(C)CCCn1c2c(c3ccncc3c1=O)C(=O)c1ccccc1-2

>  <ASSIGNED_CATEGORY>
active

$$$$
>  <COMPOUND>
CCN(CC)CCOc1ccc(C(=O)/C=C\c2ccc(Cl)cc2Cl)cc1

>  <ASSIGNED_CATEGORY>
active

$$$$
>  <COMPOUND>
COc1cc2c(cc1OCCCN1CCN(C(=S)SCCC(C#N)(c3ccccc3)c3ccccc3)CC1)N=C[C@@H]1CCCN1C2=O

>  <ASSIGNED_CATEGORY>
active

$$$$
